Tested on: P. falciparum strain W2
MEASUREMENT NOTES: Plasmodium falciparum susceptibility assay (labeled hypoxanthine)
Type: cell-based
MEASUREMENT PARAMETERS: Plasmodium falciparum, W2, read-out: IC90 W2
PARAMETER MEASURED: IC90 (µg/mL)
State just the number; it will be interpreted in µg/mL.

GET /value?item= CCCCNCCNCC(O)c1cc(C(F)(F)F)nc2c(C(F)(F)F)cccc12 (stereo not shown) [WR318746] &field=IC90 returns 0.069

GET /value?item= OC(CNCCNCc1ccccc1)c1cc(C(F)(F)F)nc2c(C(F)(F)F)cccc12 (stereo not shown) [WR308396] &field=IC90 returns 0.006
